tested_system: Dual specificity tyrosine-phosphorylation-regulated kinase 1B (Homo sapiens);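 also: values are mean percent inhibition of DYRK1B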
condition_description: at 0.1 µM
measurement_name: inhibition

- compound: "NS(=O)(=O)c1ccc(N/N=C2\\C(=O)Nc3ccc(-c4cnco4)cc32)cc1"
  val: "4.08%"
- compound: "CN1CCN(CCCNc2nc3ccc(Oc4ccc(NC(=O)Nc5cc(C(F)(F)F)ccc5F)cc4)cc3[nH]2)CC1"
  val: "-2.52%"
- compound: "CNC(=O)c1cncc(/C=C/c2c(C)cccc2C)c1"
  val: "0.49%"
- compound: "O=C(Nc1n[nH]c2cc(-c3ccccc3)ccc12)C1CC1"
  val: "1.94%"
- compound: "C/C(Nc1ccc(S(N)(=O)=O)cc1)=C1/C(=O)Nc2ccccc21"
  val: "2.13%"
- compound: "COc1ccc2cc(-c3c(-c4ccncc4)nc(-c4ccc([S+](C)[O-])cc4C)n3C)ccc2c1 (centres undefined)"
  val: "2.45%"
- compound: "NS(=O)(=O)c1ccc(N/N=C2\\C(=O)Nc3ccc(C(=O)NCCCn4ccnc4)cc32)cc1"
  val: "4.25%"
- compound: "COc1ccc2cc(-c3c(-c4ccncc4)nc(-c4ccc(S(C)(=O)=O)cc4C)n3C)ccc2c1"
  val: "0.76%"
- compound: "COc1cc(Nc2ncc3c(C)nc(-c4cccc(C(F)(F)F)c4)n3n2)cc(OC)c1OC"
  val: "0.38%"

----------
tested_system: Tyrosine-protein kinase TXK (Homo sapiens);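 also: value given is the mean percent inhibition of TXK kinase activity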
condition_description: at 1 µM
measurement_name: inhibition (%)

- item_smiles: "COc1ccc(-c2ccc3c(NC(=O)C4CC4)n[nH]c3n2)cc1"
  tested_system: "Tyrosine-protein kinase TXK (Homo sapiens)"
  val: 2.53
- item_smiles: "NC(=O)c1cc(-c2ccc(F)cc2)cc(-c2ccncc2)c1N"
  tested_system: "Tyrosine-protein kinase TXK (Homo sapiens)"
  val: 12.4
- item_smiles: "COc1cc(N2CCN(C(C)C)CC2)ccc1Nc1nc(Nc2ccc(F)cc2C(=O)NC[C@@H](O)CO)c2cc[nH]c2n1"
  tested_system: "Tyrosine-protein kinase TXK (Homo sapiens)"
  val: -0.56
- item_smiles: "CS(=O)(=O)CCNCc1ccc(-c2ccc3ncnc(Nc4ccc(OCc5ccccc5)c(Br)c4)c3c2)o1"
  tested_system: "Tyrosine-protein kinase TXK (Homo sapiens)"
  val: 2.31
- item_smiles: "CN(C)CCOc1ccc(-c2cc(-c3ccc4c(c3)CCC4=NO)c(-c3ccncc3)o2)cc1"
  tested_system: "Tyrosine-protein kinase TXK (Homo sapiens)"
  val: 3.15
- item_smiles: "Cc1ccc(C(=O)NC(C)C)cc1-c1ccc(C(=O)NCC2CC2)cc1"
  tested_system: "Tyrosine-protein kinase TXK (Homo sapiens)"
  val: -1.03
- item_smiles: "Cc1nnc(-c2ccc(C)c(-c3ccc(C(=O)NCc4ccc(Cl)cc4)cc3)c2)o1"
  tested_system: "Tyrosine-protein kinase TXK (Homo sapiens)"
  val: -1.48

----------
tested_system: Protein kinase C theta type (Homo sapiens);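 also: reported figure is the mean percent inhibition of PKC-theta, from the GSK PKIS screen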
condition_description: at 0.1 µM
Recorded inhibition values for a group of molecules are listed next.

- molecule: "O=C1Nc2ccccc2/C1=C/Nc1ccc(-n2cncn2)cc1"
  inhibition (%): 2.93
- molecule: "Fc1ccc(-c2ncn(C3CCNCC3)c2-c2ccnc(Oc3ccc(Oc4ccccc4)cc3)n2)cc1"
  inhibition (%): 1.9
- molecule: "CCc1ccc(Oc2nccc(-c3c(-c4ccc(F)cc4)ncn3C3CCNCC3)n2)cc1"
  inhibition (%): 4
- molecule: "C[C@@H](Oc1cc(-n2cnc3ccc(OCC4CCN(C)CC4)cc32)sc1C(N)=O)c1ccccc1Cl"
  inhibition (%): 4.47
- molecule: "COc1cc(Nc2ncc(-c3ccccc3)o2)cc(OC)c1OC"
  inhibition (%): -0.7
- molecule: "COc1cc(Nc2ncc3c(C)nc(-c4cccc(C(F)(F)F)c4)n3n2)cc(OC)c1OC"
  inhibition (%): 1.87
- molecule: "COc1ccc(-c2ccc3c(NC(=O)C4CC4)n[nH]c3n2)cc1"
  inhibition (%): 1.39
- molecule: "O=C(NCC1CC1)c1ccc(-c2cccc(C(=O)NC3CC3)c2)cc1"
  inhibition (%): 1.24
- molecule: "NCc1ccc(-n2c(-c3nonc3N)nc3cnccc32)cc1"
  inhibition (%): 17.2
- molecule: "O=C(Nc1n[nH]c2nc(-c3ccc(O)cc3)c(Br)cc12)C1CC1"
  inhibition (%): 7.68
- molecule: "COc1ccc2cc(-c3c(-c4ccncc4)nc(-c4ccc([S+](C)[O-])cc4C)n3C)ccc2c1 (configuration not stated)"
  inhibition (%): -1.05
- molecule: "Fc1ccc(-c2ncn(C3CCNCC3)c2-c2ccnc(Oc3ccc(F)c(F)c3)n2)cc1"
  inhibition (%): 2.61
